- System: MS751 cells
- PROCEDURE_SUMMARY: MTT cell proliferation assay, MS751 cells
- Format: cell-based
- CONDITION_NOTES: Homo sapiens, incubation approximately 64-72 hours
The reader will find reported IC50 values listed item by item below.

1) Nc1ccc(/C=C/C(=O)NCCOc2ccc(-c3ccc(C(=O)N4CCOCC4)nc3)cc2Cl)cn1 ... < 0.1 µM
2) CC(=O)c1ccc(-c2ccc(OCCNC(=O)/C=C/c3cccnc3)c(Cl)c2)s1 ... 0.1 to 5 µM

Notebook: "CC(=O)c1ccc(-c2ccc(Cl)c(OCCNC(=O)/C=C/c3cccnc3)c2)s1" , IC50 read as 0.1 to 5 µM

Notebook: "Nc1ccc(/C=C/C(=O)NCCS(=O)(=O)c2ccc(-c3ccc(C(=O)N4CC(F)(F)C4)cc3)cc2Cl)cn1" , IC50 read as > 10 µM

----------
- Tested on: UCH-2 cell line
- PROCEDURE_SUMMARY: MTT cell proliferation assay, UCH-2 cells
- Assay type: cell-based
- CONDITION_NOTES: UCH2; chordoma cell line
- Experimental: The MTT cell proliferation assay was used to study the cytotoxic properties of the compounds. The assay was performed according to the method described by Roche Molecular Biochemicals, with minor modifications. […] After solubilization, the formazan dye was quantitated using a scanning multi-well spectrophotometer (ELISA reader). […] All optical densities were measured at 490 nm using a Vmax Kinetic Microplate Reader (Molecular Devices). […]
METRIC_NAME: IC50

Notebook: Nc1ccc(/C=C/C(=O)NCCOc2ccc(-c3ccc(C(=O)N4CC(F)(F)C4)cc3)cc2Cl)cn1 [Compound 318] , IC50 read as > 30 µM

----------
- System: 3T3 cells
- PROCEDURE_SUMMARY: MTT cell proliferation assay, 3T3 cells
- Type: cell-based
- CONDITION_NOTES: Mus musculus, NIH3T3; 3T3 fibroblast cells; incubation approximately 64-72 hours
- Method: The MTT cell proliferation assay was used to study the cytotoxic properties of the compounds. The assay was performed according to the method described by Roche Molecular Biochemicals, with minor modifications. […] After solubilization, the formazan dye was quantitated using a scanning multi-well spectrophotometer (ELISA reader). […] All optical densities were measured at 490 nm using a Vmax Kinetic Microplate Reader (Molecular Devices). […]
pIC50: −log10 of the molar value.
The reader will find reported pIC50 values listed item by item below.

Below: 5 compounds and their reported pIC50.
1. CC(=O)c1ccc(-c2ccc(OCCNC(=O)/C=C/c3cccnn3)c(Cl)c2)s1 ... < 5.00
2. CC(=O)c1ccc(-c2ccc(OCCNC(=O)/C=C/c3cccnc3C)c(Cl)c2)s1 ... < 5.00
3. CC(=O)c1ccc(-c2ccc(OCCNC(=O)C#Cc3cccnc3)c(Cl)c2)s1 ... < 5.00
4. Nc1ccc(/C=C/C(=O)NCC(F)(F)COc2ccc(-c3ccc(C(=O)N4CCOCC4)cc3)cc2Cl)cn1 ... 5.30 to 7.00
5. Nc1ccc(/C=C/C(=O)NCCOc2ccc(-c3ccc(C(=O)N4CCC(F)(F)CC4)cn3)cc2C(F)(F)F)cn1 ... 5.30 to 7.00

Notebook: "Nc1ccc(/C=C/C(=O)NCCOc2ccc(-c3ccc(C(=O)N4CCOCC4)nc3)cc2Cl)cn1" , pIC50 read as < 5.00

Notebook: "CC(=O)c1ccc(-c2ccccc2OCCNC(=O)/C=C/c2cccnc2)s1" , pIC50 read as 5.30 to 7.00

Notebook: "CN(CCOc1ccc(-c2ccc(C(=O)N3CC(F)(F)C3)cc2)cc1Cl)C(=O)/C=C/c1ccc(N)nc1" , pIC50 read as 5.00 to 5.30

----------
- Tested on: SNU-182 cell line
- PROCEDURE_SUMMARY: MTT cell proliferation assay, SNU-182 cells
- Type: cell-based
- CONDITION_NOTES: human hepatoma cell line
pIC50: −log10 of the molar value.
METRIC_NAME: pIC50

Notebook: "Nc1ccc(/C=C/C(=O)NCCOc2ccc(-c3ccc(C(=O)N4CC(F)(F)C4)cc3)cc2Cl)cn1" , pIC50 read as > 7.00

----------
- Test system: MS751 cells
- PROCEDURE_SUMMARY: MTT cell proliferation assay, MS751 cells
- Format: cell-based
- CONDITION_NOTES: Homo sapiens, incubation approximately 64-72 hours
The reader will find reported IC50 values listed item by item below.

Below: 5 compounds and their reported IC50.
1) Nc1ccc(/C=C/C(=O)NCCOc2ccc(-c3cccc(C(=O)N4CCOCC4)c3)cc2Cl)cn1 ... < 100 nM
2) CC(=O)c1ccc(-c2cccc(OCCNC(=O)/C=C/c3cccnc3)c2Cl)s1 ... < 100 nM
3) CC(=O)c1ccc(-c2ccc(OCCNC(=O)C#Cc3cccnc3)c(Cl)c2)s1 ... > 10000 nM
4) Nc1ccc(/C=C/C(=O)NCCOc2ccc(-c3ccc(C(=O)N4CCC(F)(F)CC4)cn3)cc2C(F)(F)F)cn1 ... < 100 nM
5) Nc1ccc(/C=C/C(=O)NCCOc2ccc(-c3ccc(C(=O)N4CCOCC4)cc3)cc2C(F)(F)F)cn1 ... < 100 nM

The reported MS751 cells IC50 of "CC(=O)c1ccc(-c2cnc(OCCNC(=O)/C=C/c3ccc(N)nc3)c(Cl)c2)s1" is > 10000 nM

The reported MS751 cells IC50 of "CC(=O)c1ccc(-c2ccc(NCCNC(=O)/C=C/c3cccnc3)c(Cl)c2)s1" is 100 to 5000 nM

The reported MS751 cells IC50 of "Nc1ccc(/C=C/C(=O)NCCOc2ccc(-c3ccc(C(=O)N4CC(F)(F)C4)cc3)cc2Cl)cn1" is < 100 nM

The reported MS751 cells IC50 of "Nc1ccc(/C=C/C(=O)NCCOc2ccc(-c3ccc(C(=O)N4CCNCC4)cc3)cc2Cl)cn1" is < 100 nM

The reported MS751 cells IC50 of "Nc1ccc(/C=C/C(=O)NCCOc2ccc(-c3nnc(C(=O)N4CCOCC4)o3)cc2Cl)cn1" is 100 to 5000 nM

The reported MS751 cells IC50 of "CC(=O)c1ccc(-c2ccc(OCCNC(=O)/C=C/c3ccc(N)nc3)c(Cl)c2)s1" is 100 to 5000 nM

The reported MS751 cells IC50 of "C=C(C)c1ccc(-c2ccc(OCCNC(=O)/C=C/c3cccnc3)c(Cl)c2)s1" is 5000 to 10000 nM

The reported MS751 cells IC50 of "CC(C)(CNC(=O)/C=C/c1ccc(N)nc1)COc1ccc(-c2ccc(C(=O)N3CCOCC3)cc2)cc1Cl" is 100 to 5000 nM

The reported MS751 cells IC50 of "[2H]C([2H])(CNC(=O)/C=C/c1ccc(N)nc1)Oc1ccc(F)c(-c2ccc(C(=O)N3CCOCC3)cc2)c1" is 100 to 5000 nM

The reported MS751 cells IC50 of "Nc1ccc(/C=C/C(=O)NCCOc2cc(Cl)cc(-c3ccc(C(=O)N4CCOCC4)cc3)c2)cn1" is < 100 nM

----------
- System: MS751 cells
- PROCEDURE_SUMMARY: MTT cell proliferation assay, MS751 cells
- Format: cell-based
- CONDITION_NOTES: Homo sapiens, incubation approximately 64-72 hours
pIC50: −log10 of the molar value.
METRIC_NAME: pIC50

Notebook: Nc1ccc(/C=C/C(=O)NCCOc2ccc(-c3ccc(C(=O)N4CC(F)(F)C4)cc3)cc2C(F)(F)F)cn1 [Compound 338] , pIC50 read as > 7.00

Notebook: CC(=O)c1ccc(-c2ccc(OCCNC(=O)/C=C/c3ccc(N)nc3)c(Cl)n2)s1 [Compound 330] , pIC50 read as 5.30 to 7.00

Notebook: CC1(C)COCCN1C(=O)c1ccc(-c2ccc(OCCNC(=O)/C=C/c3ccc(N)nc3)c(Cl)c2)cc1 [Compound 335] , pIC50 read as > 7.00

Notebook: Nc1ccc(/C=C/C(=O)NCCOc2cc(Cl)cc(-c3ccc(C(=O)N4CC(F)(F)C4)cc3)c2)cn1 [Compound 332] , pIC50 read as > 7.00

----------
The reader will find reported pIC50 values listed item by item below.
- Test system: Z138 cells
- PROCEDURE_SUMMARY: MTT cell proliferation assay, Z138 cells
- Assay type: cell-based
- CONDITION_NOTES: Homo sapiens, Z-138, incubation approximately 64-72 hours
pIC50: −log10 of the molar value.

Below: 3 molecules and their reported pIC50.
1) CC(=O)c1ccc(-c2ccccc2OCCNC(=O)/C=C/c2cccnc2)s1 [Compound 312] ... 5.30 to 7.00
2) CC(=O)c1ccc(-c2ccc(OCCNC(=O)/C=C/c3cccnc3)c(Cl)c2)s1 [Compound 300] ... 5.30 to 7.00
3) CN(CCOc1ccc(-c2ccc(C(=O)N3CC(F)(F)C3)cc2)cc1Cl)C(=O)/C=C/c1ccc(N)nc1 [Compound 334] ... > 7.00

Notebook: CC(=O)c1ccc(-c2ccc(OCCNC(=O)/C=C/c3ccc(N)nc3)c(Cl)n2)s1 [Compound 330] , pIC50 read as 5.30 to 7.00

Notebook: Nc1ccc(/C=C/C(=O)NCCOc2ccc(-c3cccc(C(=O)N4CCOCC4)c3)cc2Cl)cn1 [Compound 317] , pIC50 read as > 7.00
